Biological target: RhoA (Homo sapiens)
Sequence (P61586 1-190): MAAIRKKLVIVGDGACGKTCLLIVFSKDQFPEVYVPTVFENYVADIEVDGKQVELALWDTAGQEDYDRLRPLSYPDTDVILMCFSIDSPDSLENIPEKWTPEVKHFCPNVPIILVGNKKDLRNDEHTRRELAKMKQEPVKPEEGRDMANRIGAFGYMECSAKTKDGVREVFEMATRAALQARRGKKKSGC
outcomeMeasure: pKd
Please note pKd is a logarithmic value: minus log10 of concentration in mol/L. Answer with that number alone.

The reported pKd value, RhoA (Homo sapiens), for CCc1cccc([C@@H](O)CO)c1 reads 7.14

###

Molecular target: RhoA (HEK 293F cells) (Homo sapiens, UniProt P61586)
Sequence (P61586 1-190): as above
Assay: fluorescent RhoA-GTP probe, F488/F405 ratio, HEK […] cells
outcomeMeasure: IC50 (µM)
Reply with just the number (in µM).

The reported IC50 value, RhoA (HEK 293F cells) (Homo sapiens, UniProt P61586), for CCc1cccc([C@@H](O)CO)c1 reads 0.0257

From: paper doi:10.1101/2025.06.03.657556v1
